target.entity: human SGLT2 (Homo sapiens (Human), UniProt P31639)
Sequence (P31639 whole entry): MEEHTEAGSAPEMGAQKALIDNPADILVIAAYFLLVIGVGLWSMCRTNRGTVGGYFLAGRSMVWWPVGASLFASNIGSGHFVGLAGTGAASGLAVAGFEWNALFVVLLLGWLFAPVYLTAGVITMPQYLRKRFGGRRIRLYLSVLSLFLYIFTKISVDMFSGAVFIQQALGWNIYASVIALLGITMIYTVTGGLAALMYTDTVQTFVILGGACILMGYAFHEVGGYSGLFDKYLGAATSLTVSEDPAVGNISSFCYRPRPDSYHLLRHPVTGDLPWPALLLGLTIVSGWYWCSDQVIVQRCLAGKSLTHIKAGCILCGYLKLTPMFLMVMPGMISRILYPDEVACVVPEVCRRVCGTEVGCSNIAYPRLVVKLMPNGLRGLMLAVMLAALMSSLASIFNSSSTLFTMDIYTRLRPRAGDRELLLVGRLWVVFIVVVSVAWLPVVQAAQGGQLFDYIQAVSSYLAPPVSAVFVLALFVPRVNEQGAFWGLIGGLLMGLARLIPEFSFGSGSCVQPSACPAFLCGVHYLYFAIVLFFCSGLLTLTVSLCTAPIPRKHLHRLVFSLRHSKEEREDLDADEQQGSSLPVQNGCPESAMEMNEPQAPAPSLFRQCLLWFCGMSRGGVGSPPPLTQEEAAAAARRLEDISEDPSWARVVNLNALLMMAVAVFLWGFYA
assay.details: hSGLT2 inhibitory activity, sodium-dependent 14C-AMG glucose transport assay in CHO cells expressing hSGLT2
experimental.context: 14C-AMG uptake, CHO cells expressing hSGLT2, 37° C. for 2 h
Source text: Human SGLT2 (hSGLT2) gene was amplified by PCR from cDNA-Human Adult Normal Tissue Kidney (Invitrogen, Carlsbad, Calif.). The hSGLT2 sequence was cloned into pcDNA3.1(+) for mammalian expression and were stably transfected into Chinese hamster ovary (CHO) cells. SGLT2-expressing clones were selected based on resistance to G418 antibiotic (Geneticin®, Invitrogen, Carlsbad, Calif.) and activity in the ^14C-α-methyl-D-glucopyranoside (^14C-AMG) uptake assay. […]
parameter: IC50 (nM)

# compound, unit.string, recorded.number
data = [
    ("CC(Cc1nnc(Cc2cc(C3O[C@H](CO)[C@@H](O)[C@H](O)[C@H]3O)ccc2Cl)s1)c1ccccc1 (stereo partly shown)", "nM", 548),
    ("CCCCCc1nnc(Cc2cc([C@@H]3O[C@H](CO)[C@@H](O)[C@H](O)[C@H]3O)ccc2Cl)s1", "nM", 353),
    ("Cc1ccc(Cc2cc([C@@H]3O[C@H](CO)[C@@H](O)[C@H](O)[C@H]3O)ccc2Cl)nn1", "nM", 293),
]

(A) COc1nnc(Cc2cc([C@@H]3O[C@H](CO)[C@@H](O)[C@H](O)[C@H]3O)ccc2Cl)s1
(B) CCSc1ccc(Cc2cc([C@@H]3O[C@H](CO)[C@@H](O)[C@H](O)[C@H]3O)ccc2Cl)nn1
Task: Which numeric IC50 is bigger, that of A or that of B ? Identify your pick by its label.
Result: A
(A: 146 nM, B: 71.3 nM)

(P) Cn1cccc1-c1nnc(Cc2cc([C@@H]3O[C@H](CO)[C@@H](O)[C@H](O)[C@H]3O)ccc2Cl)s1
(Q) OC[C@H]1O[C@@H](c2ccc(Cl)c(Cc3nnc(-c4ccc5ccccc5n4)s3)c2)[C@H](O)[C@@H](O)[C@@H]1O
Task: Lower IC50: P or Q ? Identify your pick by its label.
Result: P

----------
target.entity: human SGLT2 (Homo sapiens (Human))
assay.details: hSGLT2 inhibitory activity, sodium-dependent 14C-AMG glucose transport assay in CHO cells expressing hSGLT2
experimental.context: 14C-AMG uptake, CHO cells expressing hSGLT2, 37° C. for 2 h
parameter: IC50 (nM)

Observe how each entry below is paired with its result.
# molecule, parameter, recorded.number
rows = [
    ("OC[C@H]1O[C@@H](c2ccc(Cl)c(Cc3ccc(N4CCOCC4)nn3)c2)[C@H](O)[C@@H](O)[C@@H]1O [Example 84]", "IC50", 700),
    ("CCCCc1nnc(Cc2cc([C@@H]3O[C@H](CO)[C@@H](O)[C@H](O)[C@H]3O)ccc2Cl)s1 [Example 32]", "IC50", 379),
    ("OC[C@H]1OC(c2ccc(Cl)c(Cc3nnc(/C=C/c4ccccc4)s3)c2)[C@H](O)[C@@H](O)[C@@H]1O (stereo partly drawn) [Example 27]", "IC50", 730),
    ("OC[C@H]1O[C@@H](c2ccc(Cl)c(Cc3nnc(C(F)(F)F)s3)c2)[C@H](O)[C@@H](O)[C@@H]1O [Example 38]", "IC50", 155),
    ("COc1cnc(Cc2cc([C@@H]3O[C@H](CO)[C@@H](O)[C@H](O)[C@H]3O)ccc2Cl)nn1 [Example 91]", "IC50", 24.9),
]

(P) OC[C@H]1O[C@@H](c2ccc(Cl)c(Cc3nnc4ccccc4n3)c2)[C@H](O)[C@@H](O)[C@@H]1O [Example 88]
(Q) OC[C@H]1O[C@@H](c2cc(Cc3nnc(-c4ccco4)s3)c(O)c3ccccc23)[C@H](O)[C@@H](O)[C@@H]1O [Example 94]
Task: Lower IC50: P or Q ? Identify your pick by its label.
Result: Q
(Q: 24.8 nM, P: 491 nM)

(a) OC[C@H]1O[C@@H](c2cc(Cc3nnc(-c4ccco4)s3)c3ccccc3c2)[C@H](O)[C@@H](O)[C@@H]1O [Example 95]
(b) OC[C@H]1O[C@@H](c2ccc(Cl)c(Cc3ccc(-c4ccoc4)nn3)c2)[C@H](O)[C@@H](O)[C@@H]1O [Example 63]
Task: Which numeric IC50 is bigger, that of a or that of b ? Identify your pick by its label.
Result: a
(a: 323 nM, b: 61.3 nM)

----------
target.entity: human SGLT2 (Homo sapiens (Human))
assay.details: hSGLT2 inhibitory activity, sodium-dependent 14C-AMG glucose transport assay in CHO cells expressing hSGLT2
experimental.context: 14C-AMG uptake, CHO cells expressing hSGLT2, 37° C. for 2 h
parameter: IC50 (nM)

Observe how each entry below is paired with its result.
# compound, target.entity, IC50 / nM
data = [
    ("Cc1ccc(-c2nnc(Cc3cc([C@@H]4O[C@H](CO)[C@@H](O)[C@H](O)[C@H]4O)ccc3Cl)s2)o1 [Example 2]", "human SGLT2 (Homo sapiens (Human))", 58.3),
    ("OC[C@H]1O[C@@H](c2ccc(Cl)c(Cc3nnc(-c4sccc4Cl)s3)c2)[C@H](O)[C@@H](O)[C@@H]1O [Example 9]", "human SGLT2 (Homo sapiens (Human))", 712),
    ("Cc1cc(-c2nnc(Cc3cc([C@@H]4O[C@H](CO)[C@@H](O)[C@H](O)[C@H]4O)ccc3Cl)s2)ccn1 [Example 45]", "human SGLT2 (Homo sapiens (Human))", 36.4),
    ("OC[C@H]1O[C@@H](c2ccc(Cl)c(Cc3nncc(-c4ccccc4)n3)c2)[C@H](O)[C@@H](O)[C@@H]1O [Example 90]", "human SGLT2 (Homo sapiens (Human))", 402),
]

(A) OC[C@H]1O[C@@H](c2ccc(Cl)c(Cc3nnc(-c4cc5ccccc5o4)s3)c2)[C@H](O)[C@@H](O)[C@@H]1O [Example 30]
(B) OC[C@H]1O[C@@H](c2ccc(Cl)c(Cc3nnc(-c4ccc(-c5ccccc5)o4)s3)c2)[C@H](O)[C@@H](O)[C@@H]1O [Example 37]
Task: Which numeric IC50 is bigger, that of A or that of B ? Identify your pick by its label.
Result: A
